Hi there, I'd appreciate the recorded melting point for every entry that follows.

1) CC1(C)C=Cc2c(ccc(/C=N/c3ccc(NS(=O)(=O)c4ccc(Cl)cc4)cc3)c2O)O1 : 139 to 141 °C
2) CC1(C)C=Cc2c(ccc(/C=N/c3ccc(NS(=O)(=O)c4cccs4)cc3)c2O)O1 : 148 to 150 °C
3) Cc1cc(C)c(S(=O)(=O)Nc2ccc(/N=C/c3ccc4c(c3O)C=CC(C)(C)O4)cc2)c(C)c1 : 137 to 139 °C
4) CC1(C)C=Cc2c(ccc(/C=N/c3ccc(NS(=O)(=O)c4ccc(Br)cc4)cc3)c2O)O1 : 158 to 160 °C
5) CC1(C)C=Cc2c(ccc(/C=N/c3ccc(NS(=O)(=O)c4cccc(C#N)c4)cc3)c2O)O1 : 152 to 154 °C

# batch: return melting point for each of the 2 compounds below
1. CC1(C)C=Cc2c(ccc(/C=N/c3ccc(NS(=O)(=O)c4cccc(Cl)c4)cc3)c2O)O1
2. CC1(C)C=Cc2c(ccc(/C=N/c3ccc(NS(=O)(=O)c4ccc(Br)s4)cc3)c2O)O1

["189 to 191 °C", "140 to 142 °C"]

Reference source for all entries: paper PMC11565046
